Provenance of the data: the supplement of paper PMC11208160

Test Method Notes: recombinant barcode read abundance after kanamycin selection (control-corrected) (log10(CPM+1)); higher = more efficient recombination; sequences stand for … in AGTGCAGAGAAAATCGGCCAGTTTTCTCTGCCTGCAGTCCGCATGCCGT…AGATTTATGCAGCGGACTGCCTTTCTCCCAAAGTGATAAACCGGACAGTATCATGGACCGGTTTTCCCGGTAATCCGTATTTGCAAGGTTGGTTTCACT; site = the 11-nt target;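 also: IS621 recombinase and bridge RNA in Escherichia coli cells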
Quick rule for you: recombinant barcode read abundance (log10) at 0.2 or higher means T, lower means F.

Consider the worked cases shown below.
[[record]]
seq = "CATAACTCTTGGGTTCTAACCTGTTGCCT (site GATAACTCTAG)"
category = "T"

[[record]]
seq = "TATACTACTTGGGTTCTAACCTGTTGCTT (site TATACTACTAA)"
category = "F"

[[record]]
seq = "TCCAGCACTTGGGTTCTAACCTGTTGCCT (site TCTGGCACTAG)"
category = "F"

[[record]]
seq = "GCAGCTACTTGGGTTCTAACCTGTTGCTG (site ACAGCTACTAA)"
category = "F"


Identify whether the reported recombinant barcode read abundance (log10) of the following sequence is 0.2 or greater: TGGCGAGCTTGGGTTCTAACCTGTTGCCT (site TGGCCTGCTAG) F
